Cited source: ChEMBL document CHEMBL1142719

- measurement_target: Adenosine receptor A3 (Homo sapiens)
- protocol_description: Relative activation of human Adenosine A3 receptor expressed in CHO cells at 10 uM treatment compared to 10 uM Cl-IB-MECA
- Type: functional, cell-based
molecules and their reported Activation
quantity_name: Activation (%)

smiles_structure	quantity_name	recorded_result
CNC(=O)[C@]12C[C@@H]1[C@@H](n1cnc3c(NCc4cc(OC)ccc4OC)nc(Cl)nc31)[C@H](O)[C@@H]2O	Activation	107
OC[C@@]12C[C@@H]1[C@@H](n1cnc3c(NCc4cccc(I)c4)ncnc31)[C@H](O)[C@@H]2O	Activation	13
CNC(=O)[C@@]12C[C@@H]1[C@@H](n1cnc3c(NCc4cccc(I)c4)ncnc31)[C@H](O)[C@@H]2O	Activation	100
